Target: T1, monomeric cynomolgus monkey CSF1R ectodomain protein (cynomolgus monkey, UniProt P07333 20-517 (human entry))
T1 construct: also called monomeric cyno CSF1R; Cyno CSF1R
T1 chain: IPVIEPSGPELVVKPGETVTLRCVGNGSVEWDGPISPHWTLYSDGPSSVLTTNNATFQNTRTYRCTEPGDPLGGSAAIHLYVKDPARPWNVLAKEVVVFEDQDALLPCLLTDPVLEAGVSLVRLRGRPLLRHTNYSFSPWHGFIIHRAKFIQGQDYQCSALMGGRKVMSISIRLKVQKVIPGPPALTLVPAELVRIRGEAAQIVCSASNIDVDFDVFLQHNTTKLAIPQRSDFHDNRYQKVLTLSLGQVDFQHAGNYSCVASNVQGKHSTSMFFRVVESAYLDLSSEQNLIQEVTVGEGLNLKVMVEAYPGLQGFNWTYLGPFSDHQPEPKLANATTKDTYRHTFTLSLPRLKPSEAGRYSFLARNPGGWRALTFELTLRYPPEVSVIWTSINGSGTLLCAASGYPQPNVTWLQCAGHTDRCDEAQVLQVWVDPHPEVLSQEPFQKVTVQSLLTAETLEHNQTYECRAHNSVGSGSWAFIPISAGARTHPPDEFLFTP
Test: SPR Biacore, IgG captured, monomeric CSF1R analyte
PARAMETER_MEASURED: koff (s⁻¹)
Number only, in s⁻¹; omit the unit.

BINDER: MH25 (antibody, human IgG4, V domains shown, Deimmunized MH5 derivative, human IgG4(S228P)/Ckappa IgG) VH: QVQLVQSGAEVKKPGSSVKVSCKASGYTFSSHYMIWVRQAPGQGLEWMGDINPYNGGANYAQKFQGRVTITADESTSTAYMELSSLRSEDTAVYYCAREGPYFSNLYVMDYWGQGTLVTVSS VL: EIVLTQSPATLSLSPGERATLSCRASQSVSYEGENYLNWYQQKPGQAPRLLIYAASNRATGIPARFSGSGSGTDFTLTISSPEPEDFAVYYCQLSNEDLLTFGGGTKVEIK
VALUE_UNITS: s⁻¹
koff: 0.000758
//
BINDER: MH12 (antibody, human IgG4, V domains shown, Deimmunized MH5 derivative, human IgG4(S228P)/Ckappa IgG; also called mAb-4) VH: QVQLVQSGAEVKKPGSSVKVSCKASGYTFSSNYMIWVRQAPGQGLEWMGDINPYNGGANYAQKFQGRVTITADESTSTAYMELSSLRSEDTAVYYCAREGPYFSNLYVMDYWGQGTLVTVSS VL: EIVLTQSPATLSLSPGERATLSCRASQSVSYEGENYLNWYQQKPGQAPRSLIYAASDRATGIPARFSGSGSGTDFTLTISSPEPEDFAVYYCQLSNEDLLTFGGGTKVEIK
VALUE_UNITS: s⁻¹
koff: 0.000726
//
BINDER: MH13 (antibody, human IgG4, V domains shown, Deimmunized MH5 derivative, human IgG4(S228P)/Ckappa IgG) VH: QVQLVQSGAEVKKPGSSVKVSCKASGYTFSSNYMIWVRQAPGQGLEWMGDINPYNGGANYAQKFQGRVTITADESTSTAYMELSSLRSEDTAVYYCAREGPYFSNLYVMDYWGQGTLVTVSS VL: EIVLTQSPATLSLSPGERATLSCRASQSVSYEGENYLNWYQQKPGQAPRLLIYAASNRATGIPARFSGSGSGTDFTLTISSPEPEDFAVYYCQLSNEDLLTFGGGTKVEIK
VALUE_UNITS: s⁻¹
koff: 0.000598

koff measured on MH21 (antibody, human IgG4, V domains shown, Deimmunized MH5 derivative, human IgG4(S228P)/Ckappa IgG) VH: QVQLVQSGAEVKKPGSSVKVSCKASGYTFSSSYMIWVRQAPGQGLEWMGDINPYNGGANYAQKFQGRVTITADESTSTAYMELSSLRSEDTAVYYCAREGPYFSNLYVMDYWGQGTLVTVSS VL: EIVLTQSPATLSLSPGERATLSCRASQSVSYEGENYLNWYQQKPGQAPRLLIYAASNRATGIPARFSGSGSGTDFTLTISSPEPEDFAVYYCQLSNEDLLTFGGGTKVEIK = 0.00137

koff measured on MH17 (antibody, human IgG4, V domains shown, Deimmunized MH5 derivative, human IgG4(S228P)/Ckappa IgG) VH: QVQLVQSGAEVKKPGSSVKVSCKASGYTFSSAYMIWVRQAPGQGLEWMGDINPYNGGANYAQKFQGRVTITADESTSTAYMELSSLRSEDTAVYYCAREGPYFSNLYVMDYWGQGTLVTVSS VL: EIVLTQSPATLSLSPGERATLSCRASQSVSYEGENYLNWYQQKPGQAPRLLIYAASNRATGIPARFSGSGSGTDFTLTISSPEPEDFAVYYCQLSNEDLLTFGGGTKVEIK = 0.000906

Ref: patent US20210301026A1
